// apparent KD of MS2 coat protein lookup, one value per entry
# Test system: MS2 coat protein
# assay text: apparent KD of MS2 coat protein; designed switch direction (-1 OFF switch, 1 ON switch): 1; higher = weaker reporter binding
# experimental setup: input ligand: microRNA oligo, concentration not stated
State just the number; it will be interpreted in nM.

# chain, readout, obs value
data = [
    ("GGAGCCAAGGCAGGAUAUUCAUUAUAAAUAACAUGAGGAUCACCCAUGUUGGCCAGAAGGCCAUGGGAGAAGGGCCAUGGCUCG [Xeonanis - 13 mod24] (Eterna round: R96, puzzle: Same State NG 2)", "apparent KD of MS2 coat protein", 73.7),
]

The reported apparent KD of MS2 coat protein value, MS2 coat protein, for UGUUGUUAAUUAGGAUAUGGGCACAUGAGGAUCACCCAUGUAUUGUCGAUGCUAUGUGGACACGUCUAGAAGGAAUGGCUAACA [SameState NG2 #90] (Eterna round: R96, puzzle: Same State NG 2) reads 88
